Each item that follows carries a reported EC50.
test system: HCT-15; assay: Cytotoxicity against human HCT15 cells; assay type: functional; conditions: read-out: ED50 (the source's name)
Return type: number; implicit unit µg/mL.

COMPOUND	EC50 / µg/mL
CC(C)[C@@H](CCO)CC[C@@H](C)[C@H]1[C@@H](O)[C@@H](O)[C@H]2[C@@H]3C[C@H](O)[C@H]4C[C@@H](O)CC[C@]4(C)[C@H]3CC[C@]12C	1.25

Task: // EC50 lookup, key: C[C@H](/C=C/[C@@H](C)[C@H]1CC(O)[C@H]2[C@@H]3CC(O)[C@H]4C[C@@H](O)CC[C@]4(C)[C@H]3CC[C@]12C)[C@H](C)CO (single isomer, unassigned)
Output: 0.73

Task: Next entry: CO[C@@H]1CO[C@@H](OCC[C@@H](/C=C/[C@@H](C)[C@H]2[C@@H](O)[C@@H](O)[C@H]3[C@@H]4C[C@H](O)[C@H]5[C@@H](O)[C@@H](O)CC[C@]5(C)[C@H]4CC[C@]23C)C(C)C)[C@H](O)[C@H]1O [CERTONARDOSIDE J3]
Output: 2.76

Task: Next entry: "COc1cccc2c1C(=O)c1c(O)c3c(c(O)c1C2=O)C[C@@](O)(C(=O)CO)C[C@@H]3O[C@H]1C[C@H](N)[C@H](O)[C@H](C)O1"
Output: 0.06

====

system: HCT-15; assay: Cytotoxicity against human HCT15 cells; format: functional; conditions: read-out: ED50 (the source's name)
READOUT NAME: EC50
Please answer in the form of a number followed by its unit of measurement.

COMPOUND	TESTED SYSTEM	EC50
CO[C@@H]1CO[C@@H](OCC[C@@H](CC[C@@H](C)[C@H]2[C@@H](O)[C@@H](O)[C@@H]3[C@]2(C)CC[C@@H]2[C@@]4(C)CC[C@H](O)C[C@@H]4[C@@H](O)C[C@]23O)C(C)C)[C@H](O)[C@H]1O [CERTONARDOSIDE P1]	HCT-15	2.17 µg/mL

Task: // EC50 lookup, key: CO[C@@H]1CO[C@@H](OCC[C@@H](CC[C@@H](C)[C@H]2[C@@H](O)[C@@H](O)[C@H]3[C@@H]4C[C@H](O)[C@H]5[C@@H](O)[C@@H](O)CC[C@]5(C)[C@H]4CC[C@]23C)C(C)C)[C@H](O)[C@H]1O [CERTONARDOSIDE J2]
Output: 8.2 µg/mL

Task: Next entry: CC(C)[C@@H](CCO)CC[C@@H](C)[C@H]1C[C@H](O)[C@H]2[C@@H]3C[C@@H](O)[C@H]4C[C@@H](O)CC[C@]4(C)[C@H]3CC[C@@]21C [CERTONARDOSTEROL E2]
Output: 1.26 µg/mL

Task: Next entry: CO[C@@H]1CO[C@@H](OCC[C@@H](CC[C@@H](C)[C@H]2[C@@H](O)[C@@H](O)[C@@H]3[C@]2(C)CC[C@@H]2[C@@]4(C)CC[C@H](O)[C@H](O)[C@@H]4[C@@H](O)C[C@]23O)C(C)C)[C@H](O)[C@H]1O [CERTONARDOSIDE I2]
Output: 8.32 µg/mL

====

test system: HCT-15; experiment: Cytotoxicity against human HCT15 cells; assay type: functional; conditions: read-out: ED50 (the source's name)
Each item that follows carries a reported EC50.
Please answer in the form of a number followed by its unit of measurement.

Consider the reported EC50 for these compounds:
COMPOUND	EC50
C[C@H](/C=C/[C@@H](C)[C@H]1C[C@@H](O)[C@H]2[C@@H]3C[C@H](O)[C@H]4C[C@@H](O)CC[C@]4(C)[C@H]3CC[C@@]21C)[C@H](C)CO [CERTONARDOSTEROL D4]	1.25 mg/L
CC(C)[C@@H](CCO)CC[C@@H](C)[C@H]1C[C@@H](O)[C@H]2[C@@H]3C[C@H](O)[C@H]4C[C@@H](O)CC[C@]4(C)[C@H]3CC[C@@]21C [CERTONARDOSTEROL D3]	2.48 mg/L
CC(C)[C@H](/C=C/[C@@H](C)[C@H]1C[C@@H](O)[C@H]2[C@@H]3C[C@H](O)[C@H]4C[C@@H](O)CC[C@]4(C)[C@H]3CC[C@@]21C)CO [CERTONARDOSTEROL D2]	0.01 mg/L
C[C@H](/C=C/[C@@H](C)[C@H]1C[C@@H](O)[C@@H]2[C@]1(C)CC[C@@H]1[C@@]3(C)CC[C@H](O)[C@H](O)[C@@H]3[C@@H](O)C[C@]12O)[C@H](C)CO [CERTONARDOSTEROL A2]	2.54 mg/L
C[C@H](/C=C/[C@@H](C)[C@H]1C[C@@H](O)[C@H]2[C@@H]3C[C@H](O)[C@H]4[C@@H](O)[C@@H](O)CC[C@]4(C)[C@H]3CC[C@@]21C)[C@H](C)CO [CERTONARDOSTEROL B2]	2.71 mg/L
CC(C)[C@@H](CCO)CC[C@@H](C)[C@H]1[C@@H](O)[C@@H](O)[C@@H]2[C@]1(C)CC[C@@H]1[C@@]3(C)CC[C@H](O)C[C@@H]3[C@@H](O)C[C@]12O [CERTONARDOSTEROL O1]	17.7 mg/L

Task: // EC50 lookup, key: CO[C@@H]1CO[C@@H](OCC[C@@H](CC[C@@H](C)[C@H]2[C@@H](O)[C@@H](O)[C@H]3[C@@H]4C[C@H](O)[C@H]5C[C@@H](O)CC[C@]5(C)[C@H]4CC[C@]23C)C(C)C)[C@H](O)[C@H]1O [CERTONARDOSIDE O1]
Output: 2.28 mg/L
